Catalogue of MIC values
test system: Streptococcus pneumoniae; assay: Antibacterial activity against penicillin resistant Streptococcus pneumoniae A28272; format: functional
// note: answer is a bare numeric in µg/mL

compound: CO/C(C)=C1/NC(=O)[C@H]([C@@H](C)O)NC(=O)c2csc(n2)-c2cc(O)c(-c3nc(C(=O)N[C@@H](C)C(=O)NCCc4ccc(O)cc4)cs3)nc2-c2csc(n2)[C@@H]2COC(=O)c3c4c5c(cccc5n3O)COC(=O)[C@@H](O[C@H]3C[C@](C)(O)[C@H](N(C)C)[C@H](C)O3)[C@@H](OC4)[C@H](NC(=O)c3csc1n3)c1nc(cs1)C(=O)N2
property label: MIC
numeric value: 0.0005

Now turn to the next compound.
Reported MIC for CO/C(C)=C1/NC(=O)[C@H]([C@@H](C)O)NC(=O)c2csc(n2)-c2cc(O)c(-c3nc(C(=O)N[C@@H](C)C(=O)NCCCOC4O[C@H](CO)[C@@H](O)[C@H](O)[C@H]4O)cs3)nc2-c2csc(n2)[C@@H]2COC(=O)c3c4c5c(cccc5n3O)COC(=O)[C@@H](O[C@H]3C[C@](C)(O)[C@H](N(C)C)[C@H](C)O3)[C@@H](OC4)[C@H](NC(=O)c3csc1n3)c1nc(cs1)C(=O)N2 (some centres not stated) : what is it?
1

----------
experiment: Solubility at pH 2.9; format: physicochemical; details: buffer
property label: solubility

compound: CO/C(C)=C1/NC(=O)[C@H]([C@@H](C)O)NC(=O)c2csc(n2)-c2cc(O)c(-c3nc(C(=O)N[C@@H](C)C(=O)NCc4ccc(O)c(O)c4)cs3)nc2-c2csc(n2)[C@@H]2COC(=O)c3c4c5c(cccc5n3O)COC(=O)[C@@H](O[C@H]3C[C@](C)(O)[C@H](N(C)C)[C@H](C)O3)[C@@H](OC4)[C@H](NC(=O)c3csc1n3)c1nc(cs1)C(=O)N2
property label: solubility
result: 20 µg/mL

Record request: solubility value, item CO/C(C)=C1/NC(=O)[C@H]([C@@H](C)O)NC(=O)c2csc(n2)-c2cc(O)c(-c3nc(C(=O)N[C@@H](C)C(=O)NCCOCCOCCOCCOCCOCCOC4O[C@H](CO)[C@@H](O)[C@H](O)[C@H]4O)cs3)nc2-c2csc(n2)[C@@H]2COC(=O)c3c4c5c(cccc5n3O)COC(=O)[C@@H](O[C@H]3C[C@](C)(O)[C@H](N(C)C)[C@H](C)O3)[C@@H](OC4)[C@H](NC(=O)c3csc1n3)c1nc(cs1)C(=O)N2 (some centres not stated)
> 3700 µg/mL

----------
system: Streptococcus pneumoniae; test: Antibacterial activity against penicillin resistant Streptococcus pneumoniae A28272; assay type: functional
# MIC listing for each entry below
// return numeric value only (unit: µg/mL, not printed)

compound: CO/C(C)=C1/NC(=O)[C@H]([C@@H](C)O)NC(=O)c2csc(n2)-c2cc(O)c(-c3nc(C(=O)N[C@@H](C)C(=O)NCCc4ccc(O)c(O)c4)cs3)nc2-c2csc(n2)[C@@H]2COC(=O)c3c4c5c(cccc5n3O)COC(=O)[C@@H](O[C@H]3C[C@](C)(O)[C@H](N(C)C)[C@H](C)O3)[C@@H](OC4)[C@H](NC(=O)c3csc1n3)c1nc(cs1)C(=O)N2
result units: µg/mL
numeric value: 0.125

Query: MIC; subject: `CO/C(C)=C1/NC(=O)[C@H]([C@@H](C)O)NC(=O)c2csc(n2)-c2cc(O)c(-c3nc(C(=O)N[C@@H](C)C(=O)NCCCP(=O)([O-])O)cs3)nc2-c2csc(n2)[C@@H]2COC(=O)c3c4c5c(cccc5n3O)COC(=O)[C@@H](O[C@H]3C[C@](C)(O)[C@H](N(C)C)[C@H](C)O3)[C@@H](OC4)[C@H](NC(=O)c3csc1n3)c1nc(cs1)C(=O)N2.[Na+]`
0.25

Next record, please: `CO/C(C)=C1/NC(=O)[C@H]([C@@H](C)O)NC(=O)c2csc(n2)-c2cc(O)c(-c3nc(C(=O)N[C@@H](C)C(=O)NCCN(C)C)cs3)nc2-c2csc(n2)[C@@H]2COC(=O)c3c4c5c(cccc5n3O)COC(=O)[C@@H](O[C@H]3C[C@](C)(O)[C@H](N(C)C)[C@H](C)O3)[C@@H](OC4)[C@H](NC(=O)c3csc1n3)c1nc(cs1)C(=O)N2`
0.125

Proceed to `CO/C(C)=C1/NC(=O)[C@H]([C@@H](C)O)NC(=O)c2csc(n2)-c2cc(O)c(-c3nc(C(=O)N[C@@H](C)C(=O)N(C)C[C@@H](O)[C@@H](O)[C@@H](O)[C@@H](O)CO)cs3)nc2-c2csc(n2)[C@@H]2COC(=O)c3c4c5c(cccc5n3O)COC(=O)[C@@H](O[C@H]3C[C@](C)(O)[C@H](N(C)C)[C@H](C)O3)[C@@H](OC4)[C@H](NC(=O)c3csc1n3)c1nc(cs1)C(=O)N2`
0.015
